Would you mind telling me the reported half-life of each entry?
# method_summary: Metabolic stability in human hepatocyte model
# Assay type: in vitro ADME
# stated_conditions: hepatocytes, read-out: Hepatocyte t½
# Protocol: The metabolic stabilities of inhibitors 72 and 74 were also evaluated in a human hepatocyte model. The half-lives and calculated intrinsic clearance shown in Table 6 are indicative of moderate stability.
Give bare numbers, in h.

>>> recorded_number("C=CC(=O)NCCCC[C@H](NC(=O)Cc1ccccc1F)C(=O)N1CCN(C(=O)c2cccc3ccccc23)CC1 [Inhibitor 72]")
9.73

What value of half-life has been recorded for this entry: C=CC(=O)NCCCC[C@H](NC(=O)Cc1ccccc1C)C(=O)N1CCN(C(=O)c2cccc3ccccc23)CC1 [Inhibitor 74] 4.18
